- Test system: WPMY1-TUBA1B-RELA
- test_summary: phenotypically active (imaging signature differs from DMSO and reproducible) at any of 0.3-9 uM (binary (1 = active, 0 = inactive)); higher = active
- experimental_conditions: treatment time: 24 h
Examples of molecules with documented phenotypically active follow.

CC[C@H](C)C(=O)O[C@H]1C[C@H](O)C=C2C=C[C@H](C)[C@H](CC[C@@H](O)C[C@@H](O)CC(=O)O)[C@H]21 [pravastatin]	0 (inactive)

Write down phenotypically active measured for item Cc1cc(Nc2ncc3c(n2)N(C)C(=O)N(c2cc(NC(=O)c4cccc(C(F)(F)F)c4)ccc2C)C3)n(C)n1 [Pluripotin]
1 (active)

Write down phenotypically active measured for item COc1ccc(S(=O)(=O)N(C(C)=O)c2ccccc2/C=C/c2cc[n+]([O-])cc2)cc1
1 (active)

Write down phenotypically active measured for item COc1ccc(C(=O)Nc2sc3c(c2C(N)=O)CCCC3)cc1OC
0 (inactive)

###

- Test system: HepG2-CANX-COX4
- test_summary: lowest phenotypically active concentration; higher = less potent
- experimental_conditions: treatment time: 24 h
Structures can show the parent of a compound that is named as a salt.
metric: lowest phenotypically active concentration (µM)
Report the figure in µM without appending any unit label.

S=c1[nH]cnc2nc[nH]c12 [mercaptopurine]	9
COc1cc(N2CCOCC2)ccc1Nc1ncc(Cl)c(Nc2ccccc2NS(C)(=O)=O)n1	3

Write down lowest phenotypically active concentration measured for item COc1ccc(S(=O)(=O)N(CCO)c2ccccc2CN(C)C/C=C/c2ccc(Cl)cc2)cc1
3

Write down lowest phenotypically active concentration measured for item CCc1nc(-c2cccc(C)c2)c(-c2ccnc(NC(=O)c3ccccc3)c2)s1
1

Write down lowest phenotypically active concentration measured for item Nc1cc(C(F)(F)F)c(-c2cc(N3CCOCC3)nc(N3CCOCC3)n2)cn1 [buparlisib]
1

Write down lowest phenotypically active concentration measured for item CS(=O)(=O)c1cccc(CNc2nc(Nc3ccc4c(c3)CCC(=O)N4)ncc2C(F)(F)F)c1
1

Write down lowest phenotypically active concentration measured for item C[C@@H]1CN(Cc2ccc(F)cc2)[C@@H](C)CN1C(=O)c1cc2c(C(=O)C(=O)N(C)C)cn(C)c2cc1Cl [SCIO 469 hydrochloride]
1

Write down lowest phenotypically active concentration measured for item CO[C@H]1C=CO[C@@]2(C)Oc3c(C)c(O)c4c(O)c(c(/C=N/N5CCN(C)CC5)c(O)c4c3C2=O)NC(=O)C(C)=CC=C[C@H](C)[C@H](O)[C@@H](C)[C@@H](O)[C@@H](C)[C@H](OC(C)=O)[C@@H]1C [Rifampicin]
3

Write down lowest phenotypically active concentration measured for item CCN1CCN(C(c2cccnc2)c2cc(Cl)c3cccnc3c2O)CC1 (stereo not drawn)
9

###

- System: HepG2-GM130-SQSTM1
- test_summary: phenotypically active (imaging signature differs from DMSO and reproducible) at any of 0.3-9 uM (binary (1 = active, 0 = inactive)); higher = active
- experimental_conditions: treatment time: 24 h
Structures can show the parent of a compound that is named as a salt.
Your reply should match one of these outcome classes. yes (1) = active, no (0) = inactive

OCCOCCN1CCN(C2=Nc3ccccc3Sc3ccccc32)CC1 [Quetiapine hemifumarate]	no (0)

What call does the record list for N#Cc1c(O)c2c(-c3ccc(-c4ccccc4O)cc3)csc2[nH]c1=O ?
no (0)

What call does the record list for N[C@@H](C(=O)O)c1ccc(C(=O)O)c(C(=O)O)c1 ?
no (0)

What call does the record list for O=C(Nc1nc2cc(C(F)(F)F)cc(NC3CC3)n2n1)c1cccnc1 ?
no (0)

What call does the record list for CN(C)c1nc(N(C)C)nc(N(C)C)n1 ?
no (0)

What call does the record list for Nc1nccc2c1ncn2[C@@H]1C=C(CO)[C@@H](O)[C@H]1O [3-Deazaneplanocin A hydrochloride] ?
yes (1)

What call does the record list for Oc1ccc(-c2nc(-c3ccc(F)cc3)c(-c3ccncc3)[nH]2)cc1 ?
yes (1)

What call does the record list for CC(c1cc2ccccc2s1)N(O)C(N)=O (stereo not given) ?
no (0)

What call does the record list for CC(C)[C@H](N)C(=O)OCC(CO)OCn1cnc2c(=O)[nH]c(N)nc21 (stereo not given in full) ?
no (0)

What call does the record list for CN(C)CCOC(c1ccccc1)c1ccccc1 [diphenhydramine] ?
no (0)

###

- Tested on: HepG2-TP53BP1-CLTA
- test_summary: phenotypically active (imaging signature differs from DMSO and reproducible) at any of 0.3-9 uM (binary (1 = active, 0 = inactive)); higher = active
- experimental_conditions: treatment time: 24 h
Structures can show the parent of a compound that is named as a salt.
Your reply should match one of these outcome classes. 1 (yes) for active, 0 (no) for inactive

Nc1cccc(-c2cc3c(Oc4cccc(O)c4)ncnc3[nH]2)c1	1 (yes)
O=C([C@@H](Cc1cccc(C(F)(F)F)c1)NS(=O)(=O)c1cc(F)c2c(c1)CCNC2)N1CCCC1 [(R)-PFI 2 hydrochloride]	0 (no)
Cc1cn(CCN2CCN(c3ccccc3-c3cc(C#N)cc(C(=O)NCCCN4CCCC4)c3)CC2)c2ccccc12	1 (yes)
O=C(Nc1ccncc1)c1cc([N+](=O)[O-])ccc1Cl	1 (yes)
CC1(C)CCC(C)(C)c2cc(C3(c4ccc(C(=O)O)cc4)OCCO3)ccc21	0 (no)
COc1cc(NC(=O)c2cccc(-n3cc(NC(=O)Nc4cccc(C)c4)cn3)c2)cc(OC)c1OC	0 (no)
Cc1nc(NC(=O)N2CCC[C@H]2C(N)=O)sc1-c1csc(C(C)(C)C)n1	1 (yes)
CCOC(=O)N1CCC(=C2c3ccc(Cl)cc3CCc3cccnc32)CC1 [loratadine]	0 (no)
CC(C)(C)c1cc(/C=C(\C#N)C(N)=S)cc(C(C)(C)C)c1O	1 (yes)
O=C(NCc1cccc(O)c1)Nc1nc(-c2ccncc2)cs1 [RKI 1447 dihydrochloride]	1 (yes)

What call does the record list for CC(C)(C)NC[C@H](O)COc1nsnc1N1CCOCC1 [timolol] ?
0 (no)

What call does the record list for COc1cc2c(N3CCN(C(=O)Nc4ccc(OC(C)C)cc4)CC3)ncnc2cc1OCCCN1CCCCC1 [tandutinib] ?
1 (yes)

What call does the record list for O=C(O)[C@H](O)[C@@H](O)[C@H](O[C@@H]1O[C@H](CO)[C@H](O)[C@H](O)[C@H]1O)[C@H](O)CO [Lactobionic acid] ?
0 (no)

What call does the record list for O=c1[nH]cnc2ccccc12 ?
0 (no)

What call does the record list for CNC(=C[N+](=O)[O-])NCCSCc1ccc(CN(C)C)o1 [ranitidine] ?
0 (no)

What call does the record list for CCc1cncnc1N1CCN(Cc2nc3cc(C(F)(F)F)ccc3[nH]2)CC1 ?
1 (yes)

What call does the record list for O=C1NC(=O)/C(=C\c2cccc(C(F)(F)F)c2)S1 ?
0 (no)

What call does the record list for Fc1ccc(-c2c3cccc(C(F)(F)F)c3nn2Cc2ccc(F)cc2Cl)cc1 ?
0 (no)

###

- Test system: WPMY1-ACTB-RAB5A
- test_summary: phenotypically active (imaging signature differs from DMSO and reproducible) at any of 0.3-9 uM (binary (1 = active, 0 = inactive)); higher = active
- experimental_conditions: treatment time: 24 h
metric: phenotypically active
Could you keep your reply to the number by itself?

Worked cases, phenotypically active given:
CC(C)n1nc(-c2cc3cc(O)ccc3[nH]2)c2c(N)ncnc21	1
CC(C)(C(=O)c1cccnc1)c1cccnc1	0
CC[C@H](CO)Nc1nc(NCc2ccccc2)c2ncn(C(C)C)c2n1	1

Next:
Write down phenotypically active measured for item NC(=O)c1cn(Cc2c(F)cccc2F)nn1 [rufinamide]
0

###

- Test system: WPMY1-ACTB-RAB5A
- test_summary: lowest phenotypically active concentration; higher = less potent
- experimental_conditions: treatment time: 24 h
metric: lowest phenotypically active concentration

Write down lowest phenotypically active concentration measured for item CNC(=O)c1cc(Oc2ccc(NC(=O)Nc3ccc(Cl)c(C(F)(F)F)c3)cc2)ccn1
≤ 0.3 µM

Write down lowest phenotypically active concentration measured for item C[C@@H]1COCCN1c1cc(C2(S(C)(=O)=O)CC2)nc(-c2cccc3[nH]ccc23)n1
≤ 0.3 µM

Write down lowest phenotypically active concentration measured for item CC(C)c1cc(-c2n[nH]c(=O)n2-c2ccc3c(ccn3C)c2)c(O)cc1O
≤ 0.3 µM

###

- System: A549-TUBA1B-RELA
- test_summary: phenotypically active (imaging signature differs from DMSO and reproducible) at any of 0.3-9 uM (binary (1 = active, 0 = inactive)); higher = active
- experimental_conditions: treatment time: 24 h
Your reply should match one of these outcome classes. T for active, F for inactive

Below, 3 compounds whose answers are already recorded.
O=C(Nc1cccnc1)N1CCC(Cc2cccc(Oc3ccc(C(F)(F)F)cn3)c2)CC1	T
C#C[C@]1(OC(C)=O)CC[C@H]2[C@@H]3CCC4=CC(=NO)CC[C@@H]4[C@H]3CC[C@@]21CC [norgestimate]	F
CC1=Nc2ccc(Cl)cc2S(=O)(=O)N1 [diazoxide]	F

What call does the record list for COC(=O)c1ccc(N2CCN(C)CC2)c(NC(=O)c2cccc(OC)c2)c1 ?
F

What call does the record list for COc1ccc(CCc2nc3cc(-c4c(C)noc4C)ccc3n2C[C@H](C)N2CCOCC2)cc1Cl ?
F

What call does the record list for Cc1ccc(C(=O)Oc2ccc(C(O)CNC(C)(C)C)cc2OC(=O)c2ccc(C)cc2)cc1 (stereo unspecified) ?
F

// provenance: the supplement of paper PMC7411054
